Source listed as ChEMBL document CHEMBL3046123.

Test system: Alopecurus japonicus
Assay: Herbicidal activity against haloxyfop-R-methyl-sensitive Alopecurus japonicus (Japanese foxtail) biotype Js-S assessed as inhibition of shoot length after 14 days
Type: functional
property_measured: ED50 (mg/m2)
Reply with just the number (in mg/m2).

molecule | units_label | ED50
CCOC(=O)[C@@H](C)Oc1ccc(Oc2nc3ccc(Cl)cc3o2)cc1 [FENOXAPROP-P-ETHYL] | mg/m2 | 0.114
CCOC(=O)[C@@H](C)Oc1ccc(Oc2cnc3cc(Cl)ccc3n2)cc1 [QUIZALOFOP-P-ETHYL] | mg/m2 | 0.426
C#CCOC(=O)[C@@H](C)Oc1ccc(Oc2ncc(Cl)cc2F)cc1 [CLODINAFOP PROPARGYL] | mg/m2 | 0.721

Any idea what ED50 was measured for CCCCOC(=O)[C@H](C)Oc1ccc(Oc2ccc(C#N)cc2F)cc1 [CYHALOFOP-BUTYL] ?
0.144

---

Tested on: Alopecurus japonicus
Assay: Herbicidal activity against haloxyfop-R-methyl-resistant Alopecurus japonicus (Japanese foxtail) biotype Js-R assessed as inhibition of shoot length after 14 days
Type: functional
Attribute: ED50
Reply with just the number (in mg/m2).

structure_string | ED50 [mg/m2]
CCCCOC(=O)[C@H](C)Oc1ccc(Oc2ccc(C#N)cc2F)cc1 | 0.698
CCOC(=O)[C@@H](C)Oc1ccc(Oc2cnc3cc(Cl)ccc3n2)cc1 | 15.283
CCOC(=O)[C@@H](C)Oc1ccc(Oc2nc3ccc(Cl)cc3o2)cc1 | 1.289

Note: attention shifts to another entry.
Any idea what ED50 was measured for `C#CCOC(=O)[C@@H](C)Oc1ccc(Oc2ncc(Cl)cc2F)cc1` ?
4.209
